// provenance: patent US11242344B2

- Assay Target: VHL Elongin B/C complex (Homo sapiens (Human))
- Assay Info: Fluorescence Polarization (FP) VHL Binding Assay
- Details: VHL binding, FP assay; geometric mean where more than one measurement
Readout Type: IC50 (µM)

>>> recorded_value("Cc1ncsc1-c1ccc([C@]2(C)NC(C3C[C@@H](O)CN3C(=O)C(c3cn(C)nn3)C(C)C)=NC2=O)cc1 (single isomer, unassigned) [Example 118.1]")
157

1. Cc1cc([C@@H](C(=O)N2C[C@H](O)CC2C2=NOC3(CCCc4ccccc43)N2)C(C)C)on1 (single isomer, unassigned) [Example 131.1]
2. Cc1cc([C@H](C(=O)N2C[C@H](O)C[C@H]2C2=NOC3(CCc4ccccc43)N2)C(C)C)on1 (single isomer, unassigned) [Example 130.4]
Enquiry: Pick the one with the larger IC50: 1 vs 2 Pick one and reply with its label.
Return: 1

* * *

- Assay Target: VHL Elongin B/C complex (Homo sapiens (Human))
- Assay Info: Fluorescence Polarization (FP) VHL Binding Assay
- Details: VHL binding, FP assay; geometric mean where more than one measurement
Readout Type: IC50 (µM)

Here is how some molecules turned out for IC50.
>>> recorded_value("Cc1cc([C@H](C(=O)N2C[C@H](O)C[C@H]2C2=NOC(C)(c3ccccc3)N2)C(C)C)on1 (single isomer, unassigned) [Example 128.4]")
17.3
>>> recorded_value("Cc1ncsc1-c1ccc([C@]2(C)NC(C3C[C@@H](O)CN3C(=O)[C@@H](NC(=O)C3(C#N)CC3)C(C)(C)C)=NC2=O)cc1 (single isomer, unassigned) [Example 111.1]")
111
>>> recorded_value("Cc1cc([C@H](C(=O)N2C[C@H](O)C[C@H]2C2=NO[C@](c3ccccc3)(C(F)(F)F)N2)C(C)C)on1 (mixture of isomers) [Example 114.2]")
400

A. Cc1cc(C(C(=O)N2C[C@H](O)CC2C2=NC(=O)C(C)(c3ccc(Br)cc3)N2)C(C)C)on1 (single isomer, unassigned) [Example 103.3]
B. Cc1cc([C@H](C(=O)N2C[C@H](O)C[C@H]2C2=NOC(c3ccc(Br)cc3)(C(F)(F)F)N2)C(C)C)on1 (single isomer, unassigned) [Example 133.3]
Enquiry: Please indicate which has the smaller reported IC50: A , or B . Refer to your chosen entry by its label in the reply.
Return: B
(B: 34.4 µM, A: 292 µM)

* * *

- Assay Target: VHL Elongin B/C complex (Homo sapiens (Human), UniProt P40337)
- Assay Info: Fluorescence Polarization (FP) VHL Binding Assay
- Details: VHL binding, FP assay; geometric mean where more than one measurement
- Procedure: The binding of test compounds to the VHL Elongin B/C complex was measured using a fluorescence polarization tracer competition assay. The VHL/Elongin B/C protein complex used in the assay was generated as follows. […] A VHL fluorescence polarization probe (prepared in Example 91), consisted of a VHL ligand coupled to carboxytetramethylrhodamine (TAMRA); […] […] “Post-assay” fluorescence polarization measurements were made as described for the “pre-assay” fluorescence measurement. […]
Readout Type: IC50 (µM)

A. CC/C(=C(\c1ccc(O)cc1)c1ccc(OCCN(C)C(=O)CCCOCCOc2cc(C(C(=O)N3C[C@H](O)CC3C3=NC(=O)[C@](C)(c4ccc(-c5scnc5C)cc4)N3)C(C)C)on2)cc1)c1ccccc1 (single isomer, unassigned) [Example 1003.3]
B. Cc1cc(C(C(=O)N2C[C@H](O)CC2C2=NC(=O)C(C)(c3ccc(-c4cccnc4)cc3)N2)C(C)C)on1 (single isomer, unassigned) [Example 105.4]
Enquiry: I'm curious whether A or B has the smaller IC50 number. Which is it? Answer by stating the label of the chosen item.
Return: B

* * *

- Assay Target: VHL Elongin B/C complex (Homo sapiens (Human), UniProt P40337)
- Assay Info: Fluorescence Polarization (FP) VHL Binding Assay
- Details: VHL binding, FP assay; geometric mean where more than one measurement
Readout Type: IC50

>>> recorded_value("Cc1cc(C(C(=O)N2C[C@H](O)CC2C2=NC(=O)C(C)(c3ccc(-c4cccnc4)cc3)N2)C(C)C)on1 (single isomer, unassigned) [Example 105.3]")
"> 400 µM"
>>> recorded_value("Cc1noc(C(C(=O)N2C[C@H](O)CC2C2=NC(=O)[C@](C)(c3ccc(-c4scnc4C)cc3)N2)C(C)C)n1 (single isomer, unassigned) [Example 117.1]")
"≥ 400 µM"
>>> recorded_value("Cc1ncsc1-c1ccc([C@]2(C)NC(C3C[C@@H](O)CN3C(=O)C(c3cc(OCCCCCNC(=O)c4cc5c(cc4CS(C)(=O)=O)-c4cn(C)c(=O)c6[nH]cc(c46)CN5c4ncc(F)cc4F)no3)C(C)C)=NC2=O)cc1 (single isomer, unassigned) [Example 1001.4]")
"> 100 µM"
>>> recorded_value("Cc1ncsc1-c1ccc([C@]2(C)NC(C3C[C@@H](O)CN3C(=O)C(c3cnn(C)c3)C(C)C)=NC2=O)cc1 (single isomer, unassigned) [Example 110.4]")
"≥ 400 µM"

We now examine a further compound.
Enquiry: Entry Cc1cc([C@H](C(=O)N2C[C@H](O)C[C@H]2C2=NOC(c3ccccc3)(c3ccccc3)N2)C(C)C)on1 [Example 132.2] : reported IC50 = ?
Return: 45.7 µM

* * *

- Assay Target: UniProt:P40337
- Assay Info: Surface Plasmon Resonance Assay
- Type: binding
- Details: SPR measured VHL affinity; geometric mean where more than one measurement
Readout Type: Kd (µM)

>>> recorded_value("Cc1ncsc1-c1ccc([C@]2(C)NC(C3C[C@@H](O)CN3C(=O)C(c3cn(C)nn3)C(C)C)=NC2=O)cc1 (single isomer, unassigned) [Example 118.4]")
102

1. CC/C(=C(\c1ccc(O)cc1)c1ccc(OCCN(C)C(=O)CCCOCCOc2cc(C(C(=O)N3C[C@H](O)CC3C3=NC(=O)[C@](C)(c4ccc(-c5scnc5C)cc4)N3)C(C)C)on2)cc1)c1ccccc1 (single isomer, unassigned) [Example 1003.1]
2. Cc1ncsc1-c1ccc([C@]2(C)NC(C3C[C@@H](O)CN3C(=O)C(c3cnn(C)c3)C(C)C)=NC2=O)cc1 (single isomer, unassigned) [Example 110.3]
Enquiry: Quick check, higher Kd between 1 and 2 ? Refer to your chosen item by its label in the answer.
Return: 2
(2: 150 µM, 1: 67.1 µM)

1. Cc1ncsc1-c1ccc([C@]2(C)NC(C3C[C@@H](O)CN3C(=O)C(c3cn(C)nn3)C(C)C)=NC2=O)cc1 (single isomer, unassigned) [Example 118.2]
2. CC/C(=C(\c1ccc(O)cc1)c1ccc(OCCN(C)C(=O)CCCOCCOc2cc(C(C(=O)N3C[C@H](O)CC3C3=NC(=O)[C@](C)(c4ccc(-c5scnc5C)cc4)N3)C(C)C)on2)cc1)c1ccccc1 (single isomer, unassigned) [Example 1003.2]
3. Cc1ncsc1-c1ccc([C@]2(C)NC(C3C[C@@H](O)CN3C(=O)[C@H](C(C)C)N3Cc4ccccc4C3=O)=NC2=O)cc1 (single isomer, unassigned) [Example 123.2]
4. Cc1cc([C@H](C(=O)N2C[C@H](O)C[C@H]2C2=NOC(c3ccccc3)(c3ccccc3)N2)C(C)C)on1 [Example 132.2]
5. Cc1cc([C@H](C(=O)N2C[C@H](O)C[C@H]2C2=NOC(C)(c3ccc(-c4scnc4C)cc3)N2)C(C)C)on1 (single isomer, unassigned) [Example 129.4]
Enquiry: Sort the compounds on Kd; start with the lowest figure. Could you list the labels in the order requested?
Return: 5, 1, 3, 4, 2

P. CC/C(=C(\c1ccc(O)cc1)c1ccc(OCCN(C)C(=O)CCCOCCOc2cc(C(C(=O)N3C[C@H](O)CC3C3=NC(=O)[C@](C)(c4ccc(-c5scnc5C)cc4)N3)C(C)C)on2)cc1)c1ccccc1 (single isomer, unassigned) [Example 1003.4]
Q. Cc1cc([C@H](C(=O)N2C[C@H](O)C[C@H]2C2=NOC(C)(c3ccccc3)N2)C(C)C)on1 (single isomer, unassigned) [Example 128.3]
Enquiry: Hello, I am sorting some records. Could you say if P or Q has the smaller Kd value? // respond with label for picked entry
Return: Q

* * *

- Assay Target: NanoLuc VHL fusion protein (Homo sapiens (Human), UniProt P40337)
- Sequence (P40337 whole entry, looked up, the tested form may be a part): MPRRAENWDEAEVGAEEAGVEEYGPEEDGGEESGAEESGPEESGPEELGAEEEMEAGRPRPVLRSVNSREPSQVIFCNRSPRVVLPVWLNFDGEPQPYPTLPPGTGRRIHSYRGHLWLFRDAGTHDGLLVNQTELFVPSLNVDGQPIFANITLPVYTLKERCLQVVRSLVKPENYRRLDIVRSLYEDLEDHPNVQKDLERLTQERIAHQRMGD
- Sequence (Q15370 whole entry partner, looked up, the tested form may be a part): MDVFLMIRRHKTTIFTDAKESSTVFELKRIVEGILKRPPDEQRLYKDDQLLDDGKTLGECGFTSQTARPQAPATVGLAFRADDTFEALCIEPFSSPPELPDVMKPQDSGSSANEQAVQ
- Sequence (Q15369 whole entry partner, looked up, the tested form may be a part): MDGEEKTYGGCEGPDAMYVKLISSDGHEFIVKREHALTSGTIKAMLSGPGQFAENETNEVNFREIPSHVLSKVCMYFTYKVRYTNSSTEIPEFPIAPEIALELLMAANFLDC
- Assay Info: VHL HEK-293 BRET Assay (NanoBRET Target Engagement)
- Format: cell-based
- Details: geometric mean where more than one measurement
Readout Type: IC50 (µM)

Recorded results for 6 compounds are shown here.
>>> recorded_value("Cc1ncsc1-c1ccc([C@]2(C)NC(C3C[C@@H](O)CN3C(=O)[C@@H]3CCCCN3S(C)(=O)=O)=NC2=O)cc1 (single isomer, unassigned) [Example 122.1]")
100
>>> recorded_value("Cc1cc([C@H](C(=O)N2C[C@H](O)C[C@H]2C2=NOC(C)(C)N2)C(C)C)on1")
45.4
>>> recorded_value("Cc1ncsc1-c1ccc([C@]2(C)NC(C3C[C@@H](O)CN3C(=O)C3N(S(C)(=O)=O)CCC3(C)C)=NC2=O)cc1 (single isomer, unassigned) [Example 125.4]")
100
>>> recorded_value("Cc1cc(C(C(=O)N2C[C@H](O)C[C@H]2C2=NN(CC(F)(F)F)C(C)(C)N2)C(C)C)on1 (single isomer, unassigned) [Example 134.2]")
41.3
>>> recorded_value("Cc1cc(C(C(=O)N2C[C@H](O)CC2C2=NC(C)(C)C(C)(C)N2)C(C)C)on1 (stereo partly shown)")
77.1
>>> recorded_value("CC(=O)N1CCCCC1C(=O)N1C[C@H](O)CC1C1=NC(=O)[C@](C)(c2ccc(-c3scnc3C)cc2)N1 (single isomer, unassigned) [Example 124.4]")
100

P. Cc1ncsc1-c1ccc([C@]2(C)NC(C3C[C@@H](O)CN3C(=O)[C@@H]3CCCN3S(C)(=O)=O)=NC2=O)cc1 (single isomer, unassigned)
Q. Cc1ncsc1-c1ccc([C@]2(C)NC(C3C[C@@H](O)CN3C(=O)C(c3cn(C)nn3)C(C)C)=NC2=O)cc1 (single isomer, unassigned) [Example 118.1]
Enquiry: Sort P and Q by IC50 descending and give the first. Reply with the label of the item you choose.
Return: Q
(Q: 100 µM, P: 66.4 µM)

a. Cc1ncsc1-c1ccc([C@]2(C)NC(C3C[C@@H](O)CN3C(=O)C3N(S(C)(=O)=O)CCC3(C)C)=NC2=O)cc1 (single isomer, unassigned) [Example 125.3]
b. CC(=O)N1CCCCC1C(=O)N1C[C@H](O)CC1C1=NC(=O)[C@](C)(c2ccc(-c3scnc3C)cc2)N1 (single isomer, unassigned) [Example 124.2]
c. CCN1N=C([C@@H]2C[C@@H](O)CN2C(=O)C(c2cc(C)no2)C(C)C)NC1(C)C (single isomer, unassigned) [Example 115.2]
d. Cc1cc(C(C(=O)N2C[C@H](O)C[C@H]2C2=NN(c3ccccc3)C(C)(C)N2)C(C)C)on1 (single isomer, unassigned) [Example 135.2]
Enquiry: Returns the items ordered by IC50, from maximum to minimum. Please respond by ranking the labels in the order requested.
Return: a, b, c, d
(a: 100 µM, b: 54.6 µM, c: 25.7 µM, d: 5.67 µM)
